- Substrate: C[N+](C)(C)[C@@H](Cc1cnc([S+]([O-])C[C@H](N)C(=O)O)[nH]1)C(=O)[O-]
- Measurement protocol: purified protein
- Assay type: biochemical, Mycolicibacterium smegmatis
- Test settings: 50 mM KPi pH 8.0, 25 °C, PLP-loaded enzyme, 1 mM DTT, 0.13 mM NADH

{"columns": ["Protein", "Km, µM"],
 "data": [
  ["MsEgtE (Mycolicibacterium smegmatis MC2 155; R202K) (protein, full-length ORF, pET28a N-terminal hexa-histidine tag, E. coli BL21 (DE3); homodimer (~76 kDa by SEC, predicted 78 kDa)) MMLAQQWRDARPKVAGLHLDSGACSRQSFAVIDATTAHARHEAEVGGYVAAEAATPALDAGRAAVASLIGFAASDVVYTSGSNHAIDLLLSSWPGKRTLACLPGEYGPNLSAMAANGFQVRALPVDDDGRVLVDEASHELSAHPVALVHLTALASHRGIAQPAAELVEACHNAGIPVVIDAAQALGHLDCNVGADAVYSSSKKWLAGPRGVGVLAVRPELAERLQPRIPPSDWPIPMSVLEKLELGEHNAAARVGFSVAVGEHLAAGPTAVRERLAEVGRLSRQVLAEVDGWRVVEPVDQPTAITTLESTDGADPASVRSWLIAERGIVTTACELARAPFEMRTPVLRISPHVDVTVDELEQFAAALREAP", 58.5]
]}
